# credit: patent US12685735B2

assayed_system: BRG-1 (Homo sapiens, UniProt P51532)
Sequence (P51532 whole entry): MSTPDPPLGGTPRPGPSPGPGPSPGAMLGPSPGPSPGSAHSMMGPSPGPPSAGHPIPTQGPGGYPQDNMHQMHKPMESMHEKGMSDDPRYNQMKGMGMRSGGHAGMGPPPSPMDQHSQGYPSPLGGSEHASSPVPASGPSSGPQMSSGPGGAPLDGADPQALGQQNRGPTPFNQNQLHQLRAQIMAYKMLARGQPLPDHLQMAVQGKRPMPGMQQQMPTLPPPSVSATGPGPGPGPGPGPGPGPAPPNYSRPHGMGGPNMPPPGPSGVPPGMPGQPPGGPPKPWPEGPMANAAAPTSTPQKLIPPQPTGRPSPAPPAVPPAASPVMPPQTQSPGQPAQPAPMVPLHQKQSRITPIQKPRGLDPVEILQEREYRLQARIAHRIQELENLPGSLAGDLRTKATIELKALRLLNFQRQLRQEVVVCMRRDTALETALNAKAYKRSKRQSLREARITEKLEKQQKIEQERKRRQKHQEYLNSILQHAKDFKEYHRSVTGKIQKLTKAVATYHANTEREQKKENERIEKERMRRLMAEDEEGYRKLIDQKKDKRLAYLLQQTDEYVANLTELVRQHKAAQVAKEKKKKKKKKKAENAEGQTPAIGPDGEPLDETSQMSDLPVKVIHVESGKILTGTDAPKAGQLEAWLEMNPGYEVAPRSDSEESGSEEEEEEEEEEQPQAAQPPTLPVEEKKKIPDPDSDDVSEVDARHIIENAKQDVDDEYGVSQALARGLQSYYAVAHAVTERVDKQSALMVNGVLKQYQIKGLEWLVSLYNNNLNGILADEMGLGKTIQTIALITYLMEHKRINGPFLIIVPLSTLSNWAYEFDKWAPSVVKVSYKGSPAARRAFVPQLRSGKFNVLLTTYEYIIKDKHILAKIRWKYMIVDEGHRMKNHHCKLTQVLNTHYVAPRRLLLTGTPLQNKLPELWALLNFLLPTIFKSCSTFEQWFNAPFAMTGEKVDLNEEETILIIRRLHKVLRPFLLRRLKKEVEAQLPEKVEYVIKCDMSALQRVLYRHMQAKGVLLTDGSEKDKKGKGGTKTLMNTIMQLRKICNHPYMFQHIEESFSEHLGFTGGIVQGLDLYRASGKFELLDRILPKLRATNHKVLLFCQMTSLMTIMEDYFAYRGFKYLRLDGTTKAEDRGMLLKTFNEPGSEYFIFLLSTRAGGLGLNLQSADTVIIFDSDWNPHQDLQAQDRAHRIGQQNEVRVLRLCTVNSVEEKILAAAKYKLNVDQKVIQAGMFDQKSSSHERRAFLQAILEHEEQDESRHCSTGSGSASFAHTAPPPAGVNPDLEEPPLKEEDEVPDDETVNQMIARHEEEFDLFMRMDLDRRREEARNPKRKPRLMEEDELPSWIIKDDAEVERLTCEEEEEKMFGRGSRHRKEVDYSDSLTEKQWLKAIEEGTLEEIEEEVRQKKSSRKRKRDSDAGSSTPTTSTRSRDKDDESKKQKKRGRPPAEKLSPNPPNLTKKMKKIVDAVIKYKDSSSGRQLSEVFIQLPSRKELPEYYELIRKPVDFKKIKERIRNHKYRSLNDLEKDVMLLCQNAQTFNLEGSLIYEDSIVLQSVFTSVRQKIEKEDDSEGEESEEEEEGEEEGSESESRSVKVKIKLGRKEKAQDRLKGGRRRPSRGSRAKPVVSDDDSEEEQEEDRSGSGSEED
assay_summary: ATPase catalytic activity assay of BRG-1 (ADP-Glo)
Format: biochemical
condition_label: ATPase catalytic activity, ADP-Glo; read-out: BRG1 IC50 (μM)*
property_label: IC50

| compound | assayed_system | IC50 |
| --- | --- | --- |
| C[C@@H]1CN(c2cccc(-c3csc(NC(=O)CNC(=O)c4cccc(C5(F)COCC5O)c4)n3)n2)C[C@H](C)O1 (some centres unmarked) | BRG-1 (Homo sapiens, UniProt P51532) | 1 to 5 µM |
| C[C@@H]1CN(c2cccc(-c3csc(NC(=O)CNC(=O)c4ccc5c(c4)[C@](C)(C#N)CCO5)n3)c2)C[C@H](C)O1 | BRG-1 (Homo sapiens, UniProt P51532) | < 0.1 µM |
| C[C@@]1(F)COCc2ccc(C(=O)NCC(=O)Nc3nc(C4CCOCC4)cs3)cc21 | BRG-1 (Homo sapiens, UniProt P51532) | 1 to 5 µM |
| C[C@@]1(F)COCc2ccc(C(=O)NCC(=O)Nc3nc(-c4ccnc(C5(O)CC5)c4)cs3)cc21 | BRG-1 (Homo sapiens, UniProt P51532) | 0.1 to 1 µM |

Proceed to the following item.
Tell us which IC50 value is on record for C[C@@H]1CN(c2cccc(-c3csc(NC(=O)CNC(=O)c4ccc5c(c4)[C@@](C)(C#N)COC5)n3)c2)C[C@H](C)O1
1 to 5 µM

* * *

assayed_system: BRG-1 (Homo sapiens, UniProt P51532)
assay_summary: ATPase catalytic activity assay of BRG-1 (ADP-Glo)
Assay type: biochemical
condition_label: ATPase catalytic activity, ADP-Glo; read-out: BRG1 Max % Inhibition
property_label: Emax

Example entries and their recorded answers appear below.
| compound | property_label | value_observed |
| --- | --- | --- |
| Cc1cc(C(=O)NCC(=O)Nc2nc(-c3cccc(-c4ccncc4)c3)cs2)cc(C(C)(C)C#N)c1C [Compound 75] | Emax | < 30% |
| C[C@@]1(C#N)COCc2ccc(C(=O)NCC(=O)Nc3nc(-c4cccc([C@H]5CCO5)c4)cs3)cc21 [Compound 359] | Emax | > 95% |
| C[C@@H]1CN(c2cccc(-c3csc(NC(=O)CNC(=O)c4ccc5c(c4)[C@](F)(C(F)F)CCO5)n3)c2)C[C@H](C)O1 [Compound 274] | Emax | > 95% |

Tell us which Emax value is on record for C[C@@]1(C#N)COCc2ccc(C(=O)NCC(=O)Nc3nc(-c4cccc(N5CC(F)(F)C5)c4)cs3)cc21 [Compound 342]
> 95%

Tell us which Emax value is on record for C[C@@H]1CN(c2cccc(-c3csc(NC(=O)CNC(=O)c4cnc5c(c4)[C@@](C)(CO)CC5)n3)c2)C[C@H](C)O1 [Compound 144]
> 80%

Tell us which Emax value is on record for C[C@@H]1CN(c2cccc(-c3csc(NC(=O)CNC(=O)c4ccc5c(c4)[C@](C)(CO)CO5)n3)n2)C[C@H](C)O1 (single isomer, unassigned) [Compound 132]
> 50%

* * *

assayed_system: BRM (Homo sapiens)
Sequence (P51531 whole entry): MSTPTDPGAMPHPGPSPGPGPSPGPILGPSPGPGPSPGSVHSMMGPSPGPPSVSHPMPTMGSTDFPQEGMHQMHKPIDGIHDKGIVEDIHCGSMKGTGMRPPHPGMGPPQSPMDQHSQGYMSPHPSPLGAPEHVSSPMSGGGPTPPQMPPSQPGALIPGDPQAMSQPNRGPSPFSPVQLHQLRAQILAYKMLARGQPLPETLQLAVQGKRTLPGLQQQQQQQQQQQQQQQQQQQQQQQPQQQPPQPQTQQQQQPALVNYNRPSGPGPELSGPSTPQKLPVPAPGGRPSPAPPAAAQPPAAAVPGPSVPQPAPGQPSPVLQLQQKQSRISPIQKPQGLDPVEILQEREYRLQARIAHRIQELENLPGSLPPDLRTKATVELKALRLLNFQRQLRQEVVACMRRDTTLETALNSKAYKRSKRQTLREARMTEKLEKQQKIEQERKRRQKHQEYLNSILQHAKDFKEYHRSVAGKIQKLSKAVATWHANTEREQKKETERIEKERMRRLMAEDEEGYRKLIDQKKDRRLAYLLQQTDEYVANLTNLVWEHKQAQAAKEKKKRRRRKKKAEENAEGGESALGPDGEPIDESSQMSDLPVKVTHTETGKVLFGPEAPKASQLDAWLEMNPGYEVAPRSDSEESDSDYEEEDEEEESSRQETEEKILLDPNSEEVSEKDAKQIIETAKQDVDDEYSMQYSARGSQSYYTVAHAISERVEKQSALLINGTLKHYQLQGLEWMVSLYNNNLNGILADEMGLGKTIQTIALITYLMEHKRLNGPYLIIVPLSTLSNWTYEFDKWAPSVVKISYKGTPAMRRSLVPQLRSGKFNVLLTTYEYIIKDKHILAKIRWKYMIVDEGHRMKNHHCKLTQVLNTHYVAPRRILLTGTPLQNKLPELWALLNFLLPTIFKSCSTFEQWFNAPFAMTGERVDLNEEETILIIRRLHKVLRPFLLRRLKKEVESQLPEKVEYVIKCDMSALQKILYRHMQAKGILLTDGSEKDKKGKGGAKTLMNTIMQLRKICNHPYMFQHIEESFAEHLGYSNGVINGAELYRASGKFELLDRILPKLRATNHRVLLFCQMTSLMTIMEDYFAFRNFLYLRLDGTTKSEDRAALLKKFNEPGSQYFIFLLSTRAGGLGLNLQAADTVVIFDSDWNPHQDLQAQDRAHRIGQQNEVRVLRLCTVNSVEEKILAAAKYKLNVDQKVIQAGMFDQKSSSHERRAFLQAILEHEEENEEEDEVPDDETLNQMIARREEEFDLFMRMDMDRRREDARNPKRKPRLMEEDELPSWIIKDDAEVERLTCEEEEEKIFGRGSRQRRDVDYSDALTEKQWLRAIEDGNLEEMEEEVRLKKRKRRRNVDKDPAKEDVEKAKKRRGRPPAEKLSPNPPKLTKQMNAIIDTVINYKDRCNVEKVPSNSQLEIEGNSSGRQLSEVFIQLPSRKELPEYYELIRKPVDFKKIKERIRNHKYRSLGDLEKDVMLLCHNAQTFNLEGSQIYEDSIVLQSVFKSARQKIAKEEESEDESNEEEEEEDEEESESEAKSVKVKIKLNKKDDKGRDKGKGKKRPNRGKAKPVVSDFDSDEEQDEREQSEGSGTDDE
assay_summary: ATPase catalytic activity assay of BRM (ADP-Glo)
Type: biochemical
condition_label: read-out: BRM IC50 (μM)*
property_label: IC50

Example entries and their recorded answers appear below.
| compound | assayed_system | IC50 |
| --- | --- | --- |
| C[C@]1(CO)CCc2c(C(=O)NCC(=O)Nc3nc(-c4cccc(-c5ccncc5)c4)cs3)cccc21 | BRM (Homo sapiens) | 0.1 to 1 µM |
| C[C@@]1(F)COCc2ccc(C(=O)NCC(=O)Nc3nc(C4CCOCC4)cs3)cc21 | BRM (Homo sapiens) | 0.1 to 1 µM |

Tell us which IC50 value is on record for Cc1cc(-c2cccc(-c3csc(NC(=O)CNC(=O)c4cccc(C(C)(C)CO)c4)n3)c2)nc(C)n1 [Compound 94]
< 0.1 µM

Tell us which IC50 value is on record for C[C@@H]1CN(c2cccc(-c3csc(NC(=O)CNC(=O)c4ccc5c(c4)[C@H](C#N)CCO5)n3)n2)C[C@H](C)O1 (racemic)
0.1 to 1 µM

Tell us which IC50 value is on record for C[C@@H]1CN(c2cccc(-c3csc(NC(=O)CNC(=O)c4cccc([C@@H]5COC[C@H]5O)c4)n3)c2)C[C@H](C)O1
0.1 to 1 µM
